Test system: Klebsiella pneumoniae
Assay: Antibacterial activity against Klebsiella pneumoniae D 11750/08 after 24 hrs by broth microdilution method
Assay type: functional
Conditions: D 11750/08, 24 h
Here the recorded MIC is given for each entry.
Form entry: value (µM) — number only.

O=S(=O)(Nc1ncccn1)c1ccc(/N=C/c2cc(Cl)ccc2O)cc1    500

Measured MIC, `Cc1cc(NS(=O)(=O)c2ccc(/N=C/c3cc(Cl)ccc3O)cc2)no1` : 500

Record `O=S(=O)(Nc1nccs1)c1ccc(/N=C/c2cc(Cl)ccc2O)cc1` , field MIC: 500

---

Test system: Pichia kudriavzevii
Experiment: Antifungal activity against Candida krusei E58 after 24 hrs by broth microdilution method
Type: functional
Conditions: E58, 24 h
Parameter: MIC. Scope: all listed entries.
The figure you give is taken to be in µM; do not add the unit.

Cc1cc(NS(=O)(=O)c2ccc(NC(=O)c3cc(Cl)ccc3O)cc2)no1    500

The value of MIC measured for the compound `Cc1cc(NS(=O)(=O)c2ccc(NC(=O)c3cccc(Cl)c3)cc2)no1` turned out to be 500

For record `Cc1cc(NS(=O)(=O)c2ccc(/N=C/c3cccc(Cl)c3)cc2)no1` the listed MIC is 500

---

Test system: Mycobacterium tuberculosis
Experiment: Antimycobacterial activity against Mycobacterium tuberculosis H37Rv 331/88 after 14 days
Type: functional
Conditions: H37Rv 331/88, 336 h
quantityKind: MIC (µM)
Note: unit µM is implicit; provide only the numeric part.

Consider the reported MIC for these compounds:
Cc1cc(NS(=O)(=O)c2ccc(NC(=O)c3cccc(Cl)c3)cc2)no1    500
Cc1cc(C)nc(NS(=O)(=O)c2ccc(N)cc2)n1 [SULFAMETHAZINE]    62.5
Cc1cc(NS(=O)(=O)c2ccc(/N=C/c3cccc(Cl)c3)cc2)no1    62.5
Cc1cc(NS(=O)(=O)c2ccc(NC(=O)c3cc(Cl)ccc3O)cc2)no1    125
O=C(Nc1ccc(S(=O)(=O)Nc2ncccn2)cc1)c1cc(Cl)ccc1O    125
Cc1cc(C)nc(NS(=O)(=O)c2ccc(NC(=O)c3cc(Cl)ccc3O)cc2)n1    125

Entry under test: `O=S(=O)(Nc1ncccn1)c1ccc(/N=C/c2cc(Cl)ccc2O)cc1` . Its MIC was 125

// recorded MIC for `Cc1cc(NS(=O)(=O)c2ccc(/N=C/c3cc(Cl)ccc3O)cc2)no1` : 125

MIC in this record for `Cc1cc(C)nc(NS(=O)(=O)c2ccc(/N=C/c3cc(Cl)ccc3O)cc2)n1` : 250

get_value(item= NNC(=O)c1ccncc1 [ISONIAZID] , readout=MIC) returns 0.5

MIC in this record for Nc1ccc(S(=O)(=O)Nc2nccs2)cc1 [SULFATHIAZOLE] : 32

// MIC value for `O=C(Nc1ccc(S(=O)(=O)Nc2nccs2)cc1)c1cc(Cl)ccc1O` : 250

So, Cc1cc(NS(=O)(=O)c2ccc(N)cc2)no1 [SULFAMETHOXAZOLE] ? Its MIC was 32

The value of MIC measured for the compound `O=S(=O)(Nc1nccs1)c1ccc(/N=C/c2cc(Cl)ccc2O)cc1` turned out to be 32

Short answer for Nc1ccc(S(=O)(=O)Nc2ncccn2)cc1 [SULFADIAZINE] : MIC was 32

---

System: HepG2
Test: Cytotoxicity against human HepG2 cells after 24 hrs by MTS assay
Type: cell-based
Details: HepG2, 24 h
quantityKind: log10(IC50) (log10 of the value in µM)
# log10 transformed; quantity=IC50; unit=µM

Cc1cc(C)nc(NS(=O)(=O)c2ccc(NC(=O)c3cc(Cl)ccc3O)cc2)n1    2.53

Lab note: `Nc1ccc(S(=O)(=O)Nc2nccs2)cc1` gave log10(IC50) of 3.62

GET /value?item= `Cc1cc(NS(=O)(=O)c2ccc(N)cc2)no1` &field=log10(IC50) returns 3.42

get_value(item= `Cc1cc(NS(=O)(=O)c2ccc(/N=C/c3cc(Cl)ccc3O)cc2)no1` , readout=log10(IC50)) returns 2.29

Please fill in: log10(IC50) reported for `O=S(=O)(Nc1nccs1)c1ccc(/N=C/c2cc(Cl)ccc2O)cc1` = 2.50

---

Experiment: Selectivity ratio of IC50 for human HepG2 cell sto MIC100 for Mycobacterium kansasii 6509/96
Assay type: functional
# Ratio values compiled below
Keep it simple and answer with nothing but the number.

Study these solved cases before continuing.
Cc1cc(NS(=O)(=O)c2ccc(/N=C/c3cc(Cl)ccc3O)cc2)no1    12.1
Nc1ccc(S(=O)(=O)Nc2nccs2)cc1    1040.3

Short answer for `O=S(=O)(Nc1nccs1)c1ccc(/N=C/c2cc(Cl)ccc2O)cc1` : Ratio was 78.2

The molecule `Cc1cc(C)nc(NS(=O)(=O)c2ccc(NC(=O)c3cc(Cl)ccc3O)cc2)n1` showed Ratio equal to 5.4

Briefly, Ratio measured for `Cc1cc(NS(=O)(=O)c2ccc(N)cc2)no1` : 163.9

---

System: Mycobacterium avium
Test: Antimycobacterial activity against isoniazid-, rifampicin-, ofloxacin-, ethambutol-resistant Mycobacterium avium 330/88 after 14 days
Type: functional
Settings: 330/88, 336 h
Friendly reminder: MIC below 60 µM is yes, at or above is no.

Worked cases, answers included:
Cc1cc(NS(=O)(=O)c2ccc(/N=C/c3cccc(Cl)c3)cc2)no1    yes
Cc1cc(NS(=O)(=O)c2ccc(N)cc2)no1    yes
O=C(Nc1ccc(S(=O)(=O)Nc2ncccn2)cc1)c1cc(Cl)ccc1O    no

Ask | Identify whether the molecule `Cc1cc(NS(=O)(=O)c2ccc(NC(=O)c3cccc(Cl)c3)cc2)no1` records MIC below 60 µM.
Reply | no

Ask | I wonder whether `O=S(=O)(Nc1ncccn1)c1ccc(/N=C/c2cc(Cl)ccc2O)cc1` has MIC below 60 µM. Can you tell?
Reply | no

Ask | # check: MIC < 60 µM for `Cc1cc(C)nc(NS(=O)(=O)c2ccc(N)cc2)n1`
Reply | yes

Ask | Strictly below 60 µM in MIC? `Cc1cc(C)nc(NS(=O)(=O)c2ccc(/N=C/c3cc(Cl)ccc3O)cc2)n1`
Reply | no

Ask | Quick check: MIC of `NNC(=O)c1ccncc1` under 60 µM?
Reply | no

Ask | Lab note: MIC threshold 60 µM. Does this molecule come in strictly under it? `Cc1cc(NS(=O)(=O)c2ccc(/N=C/c3cc(Cl)ccc3O)cc2)no1`
Reply | no

Ask | Identify whether the molecule `O=C(Nc1ccc(S(=O)(=O)Nc2nccs2)cc1)c1cc(Cl)ccc1O` records MIC below 60 µM.
Reply | no

---

System: Staphylococcus epidermidis
Assay: Antibacterial activity against methicillin-resistant Staphylococcus epidermidis H 6966/08 after 24 hrs by broth microdilution method
Format: functional
Settings: H 6966/08, 24 h
quantityKind: MIC

Check out these entries, answers already filled in.
Cc1cc(C)nc(NS(=O)(=O)c2ccc(N)cc2)n1    > 500 µM
Cc1cc(NS(=O)(=O)c2ccc(NC(=O)c3cc(Cl)ccc3O)cc2)no1    > 500 µM
O=S(=O)(Nc1nccs1)c1ccc(/N=C/c2cc(Cl)ccc2O)cc1    > 500 µM

GET /value?item= `Nc1ccc(S(=O)(=O)Nc2ncccn2)cc1` &field=MIC returns > 500 µM

So, `Cc1cc(C)nc(NS(=O)(=O)c2ccc(NC(=O)c3cc(Cl)ccc3O)cc2)n1` ? Its MIC was 31.2 µM

Measured MIC, `Cc1cc(NS(=O)(=O)c2ccc(/N=C/c3cccc(Cl)c3)cc2)no1` : > 500 µM

Recorded result, `O=S(=O)(Nc1ncccn1)c1ccc(/N=C/c2cc(Cl)ccc2O)cc1` , MIC: > 500 µM

Input `Cc1cc(C)nc(NS(=O)(=O)c2ccc(/N=C/c3cc(Cl)ccc3O)cc2)n1` . Output MIC: > 500 µM

# compound `Cc1cc(NS(=O)(=O)c2ccc(NC(=O)c3cccc(Cl)c3)cc2)no1` ; its MIC = > 500 µM

Looking up `O=C(Nc1ccc(S(=O)(=O)Nc2nccs2)cc1)c1cc(Cl)ccc1O` , I found its MIC recorded as > 125 µM

Record `O=C(Nc1ccc(S(=O)(=O)Nc2ncccn2)cc1)c1cc(Cl)ccc1O` , field MIC: > 500 µM

Lookup result for `Nc1ccc(S(=O)(=O)Nc2nccs2)cc1` ; measured MIC: > 500 µM

Sure, the documented MIC for `Cc1cc(NS(=O)(=O)c2ccc(/N=C/c3cc(Cl)ccc3O)cc2)no1` is > 500 µM

// recorded MIC for `Cc1cc(NS(=O)(=O)c2ccc(N)cc2)no1` : 250 µM

---

Measured MIC, listed per entry.
Tested on: Mycobacterium kansasii
Test: Antimycobacterial activity against Mycobacterium kansasii 235/80 after 21 days
Format: functional
Conditions: 235/80, 504 h
// note: answer is a bare numeric in µM

Worked cases, MIC given:
Cc1cc(NS(=O)(=O)c2ccc(N)cc2)no1    16
Cc1cc(NS(=O)(=O)c2ccc(NC(=O)c3cccc(Cl)c3)cc2)no1    8
O=C(Nc1ccc(S(=O)(=O)Nc2ncccn2)cc1)c1cc(Cl)ccc1O    16
Cc1cc(C)nc(NS(=O)(=O)c2ccc(NC(=O)c3cc(Cl)ccc3O)cc2)n1    62.5
Nc1ccc(S(=O)(=O)Nc2ncccn2)cc1    32

For the next question, use this compound.
Here `Cc1cc(C)nc(NS(=O)(=O)c2ccc(/N=C/c3cc(Cl)ccc3O)cc2)n1` was tested on Mycobacterium kansasii, and its MIC came to 250

Just for reference, ChEMBL document CHEMBL1955763 is where these values come from.
